biological target: Factor X (FX), P00742
Sequence (P00742 whole entry, looked up): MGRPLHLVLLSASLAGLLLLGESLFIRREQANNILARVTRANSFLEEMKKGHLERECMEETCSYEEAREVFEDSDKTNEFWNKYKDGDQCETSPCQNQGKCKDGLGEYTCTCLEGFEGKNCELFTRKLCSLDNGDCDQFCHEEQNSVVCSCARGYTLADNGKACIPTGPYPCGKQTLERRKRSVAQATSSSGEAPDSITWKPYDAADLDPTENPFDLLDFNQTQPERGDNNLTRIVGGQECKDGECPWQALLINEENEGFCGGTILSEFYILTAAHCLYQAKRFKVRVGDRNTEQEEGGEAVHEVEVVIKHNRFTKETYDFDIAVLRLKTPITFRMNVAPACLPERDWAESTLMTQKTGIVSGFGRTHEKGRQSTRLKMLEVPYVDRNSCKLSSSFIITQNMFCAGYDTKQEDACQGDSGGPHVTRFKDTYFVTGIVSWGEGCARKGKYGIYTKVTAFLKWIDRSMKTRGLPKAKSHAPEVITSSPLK
Reported kcat values for a set of proteins
Expressed in s⁻¹, but write only the number.

protein: FIXa-K247N/N249S/R318Y/T343R/R403E/E410N (protein) chain 1: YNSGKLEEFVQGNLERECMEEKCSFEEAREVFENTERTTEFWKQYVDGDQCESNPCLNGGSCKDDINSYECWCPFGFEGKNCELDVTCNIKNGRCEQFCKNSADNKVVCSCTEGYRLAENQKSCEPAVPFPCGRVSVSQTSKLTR chain 2: VVGGEDAKPGQFPWQVVLNGKVDAFCGGSIVNEKWIVTAAHCVETGVKITVVAGEHNIEETEHTEQNRSVIRIIPHHNYNAAINKYNHDIALLELDEPLVLNSYVTPICIADKEYTNIFLKFGSGYVSGWGRVFHKGYSALVLQYLRVPLVDRATCLRSTKFRIYNNMFCAGFHEGGRDSCQGDSGGPHVTEVEGTSFLTGIISWGEECAMKGKYGIYTKVSEYVNWIKNKTKLT
kcat [s⁻¹]: 9.5

Below: the item to evaluate.
Prompt: Which kcat value is on record for FIXa-Y155F/K247N/N249S/R338E/T343R/E410N (protein) chain 1: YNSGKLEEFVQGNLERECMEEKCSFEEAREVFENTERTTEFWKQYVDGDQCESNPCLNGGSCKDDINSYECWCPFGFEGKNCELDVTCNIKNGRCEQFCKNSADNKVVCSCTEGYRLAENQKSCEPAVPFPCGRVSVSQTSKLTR chain 2: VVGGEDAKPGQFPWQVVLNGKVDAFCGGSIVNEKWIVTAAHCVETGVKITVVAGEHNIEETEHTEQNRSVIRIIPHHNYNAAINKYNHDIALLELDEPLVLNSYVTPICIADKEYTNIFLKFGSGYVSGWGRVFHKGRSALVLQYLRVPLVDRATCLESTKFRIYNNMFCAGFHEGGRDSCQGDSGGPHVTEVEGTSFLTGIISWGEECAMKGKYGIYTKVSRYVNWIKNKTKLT ?
Completion: 4.8

The measured values listed here are drawn from patent US20210230570.
